Molecular target: T1, IFF05588
T1 chain: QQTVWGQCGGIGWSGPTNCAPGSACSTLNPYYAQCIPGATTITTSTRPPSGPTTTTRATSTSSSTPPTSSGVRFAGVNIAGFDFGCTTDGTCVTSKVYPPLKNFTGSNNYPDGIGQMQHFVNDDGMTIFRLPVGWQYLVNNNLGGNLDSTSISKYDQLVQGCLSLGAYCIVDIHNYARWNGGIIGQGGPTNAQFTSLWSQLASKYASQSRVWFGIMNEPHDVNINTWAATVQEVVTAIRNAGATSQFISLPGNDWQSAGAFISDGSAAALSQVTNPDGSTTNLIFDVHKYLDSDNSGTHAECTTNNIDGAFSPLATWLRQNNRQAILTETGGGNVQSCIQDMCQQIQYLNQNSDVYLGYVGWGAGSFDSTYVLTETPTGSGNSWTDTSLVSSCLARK
Please provide measured Relative late peak area (centered, scaled, averaged over 5, 10 and 15 min) for the entries that follow.

Task: Data request, read-out Relative late peak area (centered, scaled, averaged over 5, 10 and 15 min), for IFF21341 (protein) NLNKPVITPNFPGNGLASLGPGLMNNLAPTHSTWDDWGAGWIPSDCKSMVQGAGFSPNDIIPFNIHYDDCAQSWTFCRHKNSPLSEIQILDIFGRLPVRMRQFVRHLVFVPGNKSAGSNGDNVLMVGDVDVTVFAHEIGHSLDSHAFDPSYGVPFSTGNVWVSNYNLDSAVPDPYAQSSQQENFAQETVVSLYDKVVPGGIGTIQPNWQAIFHQYATLEGYIGNVIIPGGTCTHRLTDSAPVTMSGSKKSRRALGPKPKVSLSPKVKEIEAIPMESSITMTSFDEHGKPNGTYVVHL
Output: 1.03

Task: What measured Relative late peak area (centered, scaled, averaged over 5, 10 and 15 min) goes with IFF21346 (protein) NLDKPVIQPNFPGGGLASLGQGLLDNLKPTQSTSDVWGAGWIPADCKSLVQGAGLSPNDITPFNIHYTDCSQTWTFCRHKDSPLSQTDIIDLFGRVPVRMRDYIRHYVFIPGNKSAGSSGDNTLMVGDVDITVFLHEIGHSLDSHAFDPSYGVPFSTGNVWISNYNQDSAVTDSYAQSSQQENFAQETVVSVYDKNVPGGIGNIQPNWQAIFHQYATLEGYIGDTIIPGGTCVNRLTDSQPVTMSNSAKFRRTLGPKPTVSLSPDVKEIKPIPMADSIKMTSFDEHGKPNGTYVINL ?
Output: 0.52

Task: Name the reported Relative late peak area (centered, scaled, averaged over 5, 10 and 15 min) value associated with the protein IFF21380 (protein) QQLDKPALTNDLDYLLEGNVNNLPSNGGPYWGKWEAGLMPADCKSIAESQDLDPTDFEVWDIFFDDCQDGWSFCRHVDSADSFETLVDTFGRIPVRMRSWIRHILTIPGDNWAFNSNGNIAFSGTTSANLDVALHETGHSLDLLGAYGSEALSSTQEWLDAYDADSNVPDNYARSNQVENVAQNTVVGIYDKVVPGGFPGVQPNYQNIENQYTLLQDKAGDQIIPGGTCDRHLENSETVSASGSSKKARDSVNKKSRAVAHDPAFKGTYTNIVKDFVPFNTQDYHH
Output: -0.71

Task: Entry IFF21355 (protein) GNPDKPEVSPRIPYDRLESGLRNNLHPTQSTWDYWGAGWIPQGCKDLAKTYHLNPADFTIFNVHYTDCSASWTFCRHKDAGASEIDMIDIFGRLPVRMRSYIRHLMATPGLNDGAAAWTWSSGDCVVESAPNLATLVHEVSHSLDWHALPQYQQPFSSSSIWQDNYNQDSATPTGYGRTNWMENFAETGTVGVYDKVVPGGIGNIEPNWNAIFHQYATYQGYLGDKIIPGGSCANRFEDTPPVAMSNSVKFKITSPKPEIGIDFVGKNITQIIPSKEVEGLYIKG has what Relative late peak area (centered, scaled, averaged over 5, 10 and 15 min)?
Output: -1.02
